Test system: Human Tumor Cell lines
Experiment: Antiproliferative activity in panel of human tumor cell lines
Format: cell-based
Conditions: average over the tested human tumor cell lines
Could you please report measured AVERAGE IC50 FOR TUMOR CELL LINES for the items listed next?
One number for each entry, in mg/L.

Examples with answers:
{"COMPOUND": "CN(C)CC(=O)Nc1ccc2c(c1O)C(=O)C1=C(O)[C@]3(O)C(=O)C(C(N)=O)=C(O)[C@@H](N(C)C)C3CC1C2.Cl.Cl (some centres unmarked)", "UNITS_TEXT": "mg/L", "AVERAGE IC50 FOR TUMOR CELL LINES": 5.1}
{"COMPOUND": "CC(C)CNCC(=O)Nc1ccc2c(c1O)C(=O)C1=C(O)[C@]3(O)C(=O)C(C(N)=O)=C(O)[C@@H](N(C)C)C3CC1C2.Cl.Cl (some centres unmarked)", "UNITS_TEXT": "mg/L", "AVERAGE IC50 FOR TUMOR CELL LINES": 5.5}

// batch mode: one AVERAGE IC50 FOR TUMOR CELL LINES value per listed entry
1. CN(C)[C@@H]1C(O)=C(C(N)=O)C(=O)[C@@]2(O)C(O)=C3C(=O)c4c(ccc(NC(=O)CN5CCCC5)c4O)CC3CC12.Cl.Cl (some centres unmarked)
2. CN(C)[C@@H]1C(O)=C(C(N)=O)C(=O)[C@@]2(O)C(O)=C3C(=O)c4c(ccc(NC(=O)CN5CCCCC5)c4O)CC3CC12 (some centres unmarked)

1: 2.7; 2: 2.7

###

Could you please report measured AVERAGE IC50 FOR TUMOR CELL LINES for the items listed next?
Tested on: Human Tumor Cell lines
Experiment: Antiproliferative activity in panel of human tumor cell lines
Type: cell-based
Conditions: average over the tested human tumor cell lines
Answers are plain numbers, in µg/mL.

Examples with answers:
{"MOLECULE": "CCCCNCC(=O)Nc1ccc2c(c1O)C(=O)C1=C(O)[C@]3(O)C(=O)C(C(N)=O)=C(O)[C@@H](N(C)C)C3CC1C2.Cl (stereo partly shown) [Example 6]", "AVERAGE IC50 FOR TUMOR CELL LINES, µg/mL": 3.2}
{"MOLECULE": "CCCNCC(=O)Nc1ccc2c(c1O)C(=O)C1=C(O)[C@]3(O)C(=O)C(C(N)=O)=C(O)[C@@H](N(C)C)C3CC1C2.Cl.Cl (stereo partly shown) [Example 4]", "AVERAGE IC50 FOR TUMOR CELL LINES, µg/mL": 2.85}
{"MOLECULE": "CN(C)[C@@H]1C(O)=C(C(N)=O)C(=O)[C@@]2(O)C(O)=C3C(=O)c4c(ccc(NC(=O)CNCC5CC5)c4O)CC3CC12.Cl.Cl (stereo partly shown) [Example 7]", "AVERAGE IC50 FOR TUMOR CELL LINES, µg/mL": 4.5}

Next:
// sample C=CCN(CC=C)CC(=O)Nc1ccc2c(c1O)C(=O)C1=C(O)[C@]3(O)C(=O)C(C(N)=O)=C(O)[C@@H](N(C)C)C3CC1C2.Cl.Cl (stereo partly shown) [Example 2] , its AVERAGE IC50 FOR TUMOR CELL LINES was 2.75
